Molecular target: recombinant human PAI-1 (Homo sapiens, UniProt P05121)
Construct: purchased Molecular Innovations, Inc
Sequence (P05121 24-402): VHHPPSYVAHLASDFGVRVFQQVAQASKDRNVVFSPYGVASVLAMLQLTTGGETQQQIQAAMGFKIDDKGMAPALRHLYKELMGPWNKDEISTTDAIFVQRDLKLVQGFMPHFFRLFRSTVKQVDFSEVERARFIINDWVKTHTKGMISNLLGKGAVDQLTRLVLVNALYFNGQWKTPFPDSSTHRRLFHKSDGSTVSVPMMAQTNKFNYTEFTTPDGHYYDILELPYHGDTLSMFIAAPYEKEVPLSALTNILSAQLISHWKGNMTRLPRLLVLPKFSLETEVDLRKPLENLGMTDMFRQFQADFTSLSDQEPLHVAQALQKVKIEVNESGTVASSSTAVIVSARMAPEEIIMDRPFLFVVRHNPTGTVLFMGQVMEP
Test: Test Example 1: human PAI-1 inhibitory activity (tPA fluorogenic substrate, pH 7.5 Tris buffer)
Assay type: biochemical
Conditions: Compound Concentration 10 μM; Tris buffer
measure_name: Inhibition Rate of PAI-1 Activity (%)

compound="CC(C)(C)c1ccc(Oc2cc(-c3ccc(OC(F)(F)F)cc3)ccc2OC(F)C(=O)O)cc1 (stereo not shown)" scale_unit=% observed_measurement=93
compound=CC(C)(C)c1ccc(COc2ccc(-c3ccc(C(C)(C)C)cc3)cc2CCC(=O)O)cc1 scale_unit=% observed_measurement=66

(I) CC(C)(C)c1ccc(-c2ccc(Oc3ccc(-c4ccc(OC(F)(F)F)cc4)cc3/C=C/C(=O)O)c(CCC(=O)O)c2)cc1
(II) O=C(O)CCc1cc(-c2ccc(OC(F)(F)F)cc2)ccc1OCc1ccc(-c2ccccc2)cc1
Data request: Higher Inhibition Rate of PAI-1 Activity (%): I or II ? // output: label of the selected item
Data returned: I
(I: 91%, II: 56%)

---

Molecular target: recombinant human PAI-1 (Homo sapiens)
Construct: purchased Molecular Innovations, Inc
Test: Test Example 2: human PAI-1 inhibitory activity (tPA fluorogenic substrate, pH 7.4 HEPES buffer)
Format: biochemical
Conditions: human PAI-1; compound concentration 3 μM
measure_name: Inhibition Rate of PAI-1 Activity (%)

// worked examples, Inhibition Rate of PAI-1 Activity (%) included
molecule=O=C(O)C(=O)N(CCCCc1ccccc1)c1ccc(N2CCCCCC2)c(-c2ccc(OC(F)(F)F)cc2)c1 measure_name="Inhibition Rate of PAI-1 Activity (%)" scale_unit=% observed_measurement=98
molecule=CCC(CC)Oc1ccc(-c2ccc(CCC(=O)O)c(Oc3ccc(C(C)(C)C)cc3)c2)cc1 measure_name="Inhibition Rate of PAI-1 Activity (%)" scale_unit=% observed_measurement=98
molecule=CC(C)(C)c1ccc(Oc2cc(-c3cccc([N+](=O)[O-])c3)ccc2OCC(=O)O)cc1 measure_name="Inhibition Rate of PAI-1 Activity (%)" scale_unit=% observed_measurement=69
molecule=O=C(O)C(=O)N(Cc1ccc(-c2ccc(OC(F)(F)F)cc2)cc1)c1ccccc1-c1ccccc1 measure_name="Inhibition Rate of PAI-1 Activity (%)" scale_unit=% observed_measurement=97

(1) CCCCC(C(=O)O)N(Cc1ccc(C(C)(C)C)cc1)c1cccc(-c2ccc(OC(F)(F)F)cc2)c1 (centres unmarked)
(2) O=C(O)C(=O)N(Cc1ccc(-c2ccc(OC(F)(F)F)cc2)cc1)c1ccccc1
Data request: I would appreciate it if you could say which entry, 1 or 2 , has the lower Inhibition Rate of PAI-1 Activity (%) value. # answer = label of selected item
Data returned: 2

---

Target: recombinant rat PAI-1 (Rattus norvegicus, UniProt P20961)
Construct: purchased Molecular Innovations, Inc
Sequence (P20961 24-402): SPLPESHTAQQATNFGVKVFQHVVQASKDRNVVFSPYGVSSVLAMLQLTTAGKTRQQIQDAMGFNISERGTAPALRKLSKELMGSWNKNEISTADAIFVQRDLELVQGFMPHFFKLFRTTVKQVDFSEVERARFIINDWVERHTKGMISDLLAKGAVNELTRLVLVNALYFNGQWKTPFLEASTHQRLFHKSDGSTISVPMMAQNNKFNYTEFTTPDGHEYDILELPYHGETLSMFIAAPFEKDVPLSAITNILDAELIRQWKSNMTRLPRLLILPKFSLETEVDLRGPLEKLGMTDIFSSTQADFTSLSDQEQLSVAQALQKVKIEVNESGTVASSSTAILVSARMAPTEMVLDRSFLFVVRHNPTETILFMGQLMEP
Experiment: Test Example 3: rat PAI-1 inhibitory activity (as Test Example 2 with rat PAI-1)
Type: biochemical
Details: rat PAI-1; compound concentration 3 μM
measure_name: Inhibition Rate of PAI-1 Activity (%)

smiles=Cc1cc(N(C)C)c(-c2ccc(OC(F)(F)F)cc2)cc1N(Cc1ccc(C(C)(C)C)cc1)C(=O)C(=O)O measure_name="Inhibition Rate of PAI-1 Activity (%)" observed_measurement=84
smiles=CC(C)(C)c1ccc(CN(C(=O)C(=O)O)c2ccc(OCc3ccccc3)c(-c3ccc(OC(F)(F)F)cc3)c2)cc1 measure_name="Inhibition Rate of PAI-1 Activity (%)" observed_measurement=73
smiles=CCN(CC)c1ccc(N(Cc2ccc(C(C)(C)C)cc2)C(=O)C(=O)O)cc1-c1ccc(OC(F)(F)F)cc1 measure_name="Inhibition Rate of PAI-1 Activity (%)" observed_measurement=90
smiles=CC(C)Oc1ccc(N(Cc2ccc(C(C)(C)C)cc2)C(=O)C(=O)O)cc1-c1ccc(OC(F)(F)F)cc1 measure_name="Inhibition Rate of PAI-1 Activity (%)" observed_measurement=78

(P) CN(C)c1ccc(N(Cc2ccc(C(C)(C)C)cc2)C(=O)C(=O)O)cc1-c1ccc(OC(F)(F)F)cc1
(Q) CCCCc1ccc(COc2ccc(-c3ccc(OC(F)(F)F)cc3)cc2CCC(=O)O)cc1
Data request: Higher Inhibition Rate of PAI-1 Activity (%) between P and Q ? Indicate which entry you chose by stating its label.
Data returned: P
(P: 77%, Q: 47%)
